Give measured pEC50 for each item. Keep answers brief.
- assay-target: LBD of LXRβ (Homo sapiens (Human), UniProt P55055)
- Sequence (P55055 222-460): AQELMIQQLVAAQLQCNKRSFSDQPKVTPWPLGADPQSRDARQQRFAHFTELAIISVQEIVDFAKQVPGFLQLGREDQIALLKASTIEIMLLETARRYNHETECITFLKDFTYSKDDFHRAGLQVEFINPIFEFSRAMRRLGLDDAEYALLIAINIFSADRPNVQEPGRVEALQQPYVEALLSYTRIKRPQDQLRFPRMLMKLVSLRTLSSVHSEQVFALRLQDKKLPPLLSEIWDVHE
- protocol-description: cell-based
Just the number, please; pEC50 means minus log10 of the concentration in mol/L.

Data request: So what's the measured pEC50 for this one? CCCC(O)c1cnc(N2CCn3c(nc4cc(CO)c(S(C)(=O)=O)cc43)[C@H]2C(C)C)nc1C(F)(F)F (single isomer, unassigned) [Compound E11a]
Data returned: 7.17

Data request: So what's the measured pEC50 for this one? CC(C)C1c2nc3ccc(S(C)(=O)=O)cc3n2CCN1c1ncc(C(C)(C)O)c(C(F)(F)F)n1 (racemic) [Compound E2]
Data returned: 6.42

====

Give measured EC50 for each item. Keep answers brief.
- assay-target: LBD of LXRβ (Homo sapiens (Human))
- protocol-description: cell-based

Data request: So what's the measured EC50 for this one? CC(C)C1c2nc3ccc(S(C)(=O)=O)cc3n2CCN1c1ncc(CO)c(C(F)(F)F)n1 (racemic) [Compound E4]
Data returned: 293 nM

Data request: So what's the measured EC50 for this one? CC(C)C1c2nc3ccc(S(C)(=O)=O)cc3n2CCN1c1ncc(C(N)=O)c(C(F)(F)F)n1 (racemic) [Compound E5]
Data returned: 2690 nM

Data request: So what's the measured EC50 for this one? CC(C)[C@@H]1c2nc3cc(CO)c(S(C)(=O)=O)cc3n2CCN1c1ncc(CO)c(C2CC2)n1 (single isomer, unassigned) [Compound E20a]
Data returned: > 20000 nM

====

This section lists pEC50 readings for LBD of LXRβ (Homo sapiens (Human)).
Just the number, please; pEC50 means minus log10 of the concentration in mol/L.

Data request: So what's the measured pEC50 for this one? CC(C)[C@@H]1c2cc3ccc(S(C)(=O)=O)cc3n2CCN1c1ncc(CO)c(C(F)(F)F)n1 [Compound E25a]
Data returned: 7.08

Data request: So what's the measured pEC50 for this one? CC(O)c1cnc(N2CCn3c(cc4ccc(S(C)(=O)=O)cc43)C2C(C)C)nc1C(F)(F)F (single isomer, unassigned) [Compound E24b]
Data returned: 6.82

Data request: So what's the measured pEC50 for this one? CC(C)[C@@H]1c2cc3ccc(S(C)(=O)=O)cc3n2CCN1c1ncc(C(C)(C)O)c(C(F)(F)F)n1 [Compound E23a]
Data returned: 6.51

Data request: So what's the measured pEC50 for this one? CC(C)C1c2cc3cc(CO)c(S(C)(=O)=O)cc3n2CCN1c1ncc(C(C)(C)O)c(C(F)(F)F)n1 (single isomer, unassigned) [Compound E27b]
Data returned: 5.84

Data request: So what's the measured pEC50 for this one? CC(O)c1cnc(N2CCn3c(cc4ccc(S(C)(=O)=O)cc43)C2C(C)C)nc1C(F)(F)F (single isomer, unassigned) [Compound E24c]
Data returned: 4.74

====

Give measured EC50 for each item. Keep answers brief.
- assay-target: LBD of LXRβ (Homo sapiens (Human), UniProt P55055)
- protocol-description: cell-based
Hi! Could you send only the number? It should be in µM, unit omitted.

Data request: So what's the measured EC50 for this one? Cc1cnc(N2CCn3c(nc4cc(CO)c(S(C)(=O)=O)cc43)[C@H]2C(C)C)nc1C(F)(F)F
Data returned: 0.01

Data request: So what's the measured EC50 for this one? CC(=O)c1cnc(N2CCn3c(nc4ccc(S(C)(=O)=O)cc43)C2C(C)C)nc1C(F)(F)F (racemic) [Compound E1]
Data returned: 0.35

Data request: So what's the measured EC50 for this one? CCOC(=O)c1cnc(N2CCn3c(cc4cc(CO)c(S(C)(=O)=O)cc43)C2C(C)C)nc1C(F)(F)F (racemic)
Data returned: 0.072

Data request: So what's the measured EC50 for this one? CC(C)[C@H]1c2nc3cc(CO)c(S(C)(=O)=O)cc3n2CCN1c1ncc(C(C)(C)O)c(C(F)(F)F)n1 (single isomer, unassigned)
Data returned: 2.18

Data request: So what's the measured EC50 for this one? CC(=O)c1cnc(N2CCn3c(cc4cc(CO)c(S(C)(=O)=O)cc43)C2C(C)C)nc1C(F)(F)F (racemic)
Data returned: 0.016

Data request: So what's the measured EC50 for this one? CC(C)[C@@H]1c2nc3cc(CO)c(S(C)(=O)=O)cc3n2CCN1c1ncc(C(C)(C)O)c(C(F)(F)F)n1 (single isomer, unassigned)
Data returned: 0.023

Data request: So what's the measured EC50 for this one? CC(C)[C@H]1c2nc3cc(CO)c(S(C)(=O)=O)cc3n2CCN1c1ncc(C(=O)N(C)C)c(C(F)(F)F)n1 (single isomer, unassigned) [Compound E17b]
Data returned: 4.9

Data request: So what's the measured EC50 for this one? COC(=O)c1cnc(N2CCn3c(nc4cc(CO)c(S(C)(=O)=O)cc43)[C@H]2C(C)C)nc1C(F)(F)F
Data returned: 0.017

====

- assay-target: LXR β LBD protein (Homo sapiens (Human), UniProt P55055)
- Sequence (P55055 222-460): as the sequence (P55055 222-460) above
Classification by Ki follows these ranges: bottom range (below 10 nM), center range (10 nM to below 100 nM), top range (100 nM or more)

Data request: Which bin should I file CC(C)C1c2nc3ccc(S(C)(=O)=O)cc3n2CCN1c1ncc(CO)c(C(F)(F)F)n1 (racemic) under?
Data returned: top range

Data request: Which bin should I file CC(C)[C@@H]1c2nc3cc(CO)c(S(C)(=O)=O)cc3n2CCN1c1ncc(CO)c(C2CC2)n1 (single isomer, unassigned) [Compound E20a] under?
Data returned: top range

Data request: Which bin should I file CC(C)C1c2cc3cc(CO)c(S(C)(=O)=O)cc3n2CCN1c1ncc(C(C)(C)O)c(C(F)(F)F)n1 (single isomer, unassigned) [Compound E27a] under?
Data returned: bottom range

Data request: Which bin should I file Cc1nc(N2CCn3c(nc4cc(CO)c(S(C)(=O)=O)cc43)[C@H]2C(C)C)ncc1CO under?
Data returned: top range

Data request: Which bin should I file CC(O)c1cnc(N2CCn3c(cc4ccc(S(C)(=O)=O)cc43)C2C(C)C)nc1C(F)(F)F (single isomer, unassigned) [Compound E24b] under?
Data returned: center range

Data request: Which bin should I file CC(C)[C@@H]1c2cc3ccc(S(C)(=O)=O)cc3n2CCN1c1ncc(C(C)(C)O)c(C(F)(F)F)n1 [Compound E23a] under?
Data returned: center range

Data request: Which bin should I file CC(=O)c1cnc(N2CCn3c(cc4ccc(S(C)(=O)=O)cc43)[C@@H]2C(C)C)nc1C(F)(F)F [Compound E22b] under?
Data returned: top range

Data request: Which bin should I file CC(O)c1cnc(N2CCn3c(cc4ccc(S(C)(=O)=O)cc43)C2C(C)C)nc1C(F)(F)F (single isomer, unassigned) [Compound E24c] under?
Data returned: top range

Data request: Which bin should I file CC(C)[C@@H]1c2nc3cc(CO)c(S(C)(=O)=O)cc3n2CCN1c1ncc(C(C)(C)O)c(C(F)(F)F)n1 (single isomer, unassigned) under?
Data returned: center range

Data request: Which bin should I file CC(C)C1c2cc3cc(CO)c(S(C)(=O)=O)cc3n2CCN1c1ncc(C(C)(C)O)c(C(F)(F)F)n1 (single isomer, unassigned) [Compound E27b] under?
Data returned: top range

Data request: Which bin should I file CCOC(=O)c1cnc(N2CCn3c(cc4cc(CO)c(S(C)(=O)=O)cc43)C2C(C)C)nc1C(F)(F)F (racemic) under?
Data returned: bottom range

Data request: Which bin should I file CC(C)[C@H]1c2nc3cc(CO)c(S(C)(=O)=O)cc3n2CCN1c1ncc(C(C)(C)O)c(C(F)(F)F)n1 (single isomer, unassigned) under?
Data returned: top range

====

- assay-target: LXR α LBD protein (Homo sapiens (Human))
- Sequence (Q13133 209-447): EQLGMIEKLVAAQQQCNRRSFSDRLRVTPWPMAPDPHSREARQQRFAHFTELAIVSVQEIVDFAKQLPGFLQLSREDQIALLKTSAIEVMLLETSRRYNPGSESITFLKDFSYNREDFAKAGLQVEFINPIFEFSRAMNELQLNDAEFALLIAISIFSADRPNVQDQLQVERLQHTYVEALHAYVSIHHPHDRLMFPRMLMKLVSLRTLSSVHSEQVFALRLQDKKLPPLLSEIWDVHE
- protocol-description: LXR α radioligand binding assay (SPA, [3H]T0901317 competition)
- condition-info: competition with 15 nM [3H]T0901317, LXRα LBD
pKi: −log10 of the molar value.
measure-name: pKi

Data request: So what's the measured pKi for this one? Cc1nc(N2CCn3c(nc4cc(CO)c(S(C)(=O)=O)cc43)[C@H]2C(C)C)ncc1CO
Data returned: < 5.48

Data request: So what's the measured pKi for this one? CC(C)C1c2nc3ccc(S(C)(=O)=O)cc3n2CCN1c1ncc(C(N)=O)c(C(F)(F)F)n1 (racemic)
Data returned: < 5.48

Data request: So what's the measured pKi for this one? CCOC(=O)c1cnc(N2CCn3c(nc4ccc(S(C)(=O)=O)cc43)C2C(C)C)nc1C(F)(F)F (racemic)
Data returned: < 5.48

====

measure-name: pKi
Just the number, please; pKi means minus log10 of the concentration in mol/L.

Data request: Record CCCC(O)c1cnc(N2CCn3c(nc4cc(CO)c(S(C)(=O)=O)cc43)[C@H]2C(C)C)nc1C(F)(F)F (single isomer, unassigned) [Compound E11a] : what is its pKi with UniProtKB P55055?
Data returned: 7.85

Data request: Record CC(C)[C@@H]1c2nc3cc(CO)c(S(C)(=O)=O)cc3n2CCN1c1ncc(C(=O)N(C)C)c(C(F)(F)F)n1 (single isomer, unassigned) [Compound E17a] : what is its pKi with UniProtKB P55055?
Data returned: 6.66

Data request: Record CC(O)c1cnc(N2CCn3c(cc4ccc(S(C)(=O)=O)cc43)C2C(C)C)nc1C(F)(F)F (single isomer, unassigned) [Compound E24a] : what is its pKi with UniProtKB P55055?
Data returned: 8.15

Data request: Record CC(=O)c1cnc(N2CCn3c(nc4ccc(S(C)(=O)=O)cc43)C2C(C)C)nc1C(F)(F)F (racemic) [Compound E1] : what is its pKi with UniProtKB P55055?
Data returned: 6.72

Data request: Record CC(C)[C@@H]1c2nc3cc(CO)c(S(C)(=O)=O)cc3n2CCN1c1ncc(C(N)=O)c(C(F)(F)F)n1 (single isomer, unassigned) [Compound E15a] : what is its pKi with UniProtKB P55055?
Data returned: 6.62

Data request: Record CCCC(O)c1cnc(N2CCn3c(nc4cc(CO)c(S(C)(=O)=O)cc43)[C@H]2C(C)C)nc1C(F)(F)F (single isomer, unassigned) [Compound E11b] : what is its pKi with UniProtKB P55055?
Data returned: 7.64

Data request: Record CC(C)C1c2nc3ccc(S(C)(=O)=O)cc3n2CCN1c1ncc(C(C)(C)O)c(C(F)(F)F)n1 (racemic) [Compound E2] : what is its pKi with UniProtKB P55055?
Data returned: 6.75
